target: TYK2 (Homo sapiens, UniProt P29597); construct: Degradation of TYK2 in cells was quantitatively measured using Meso Scale Discovery (MSD) technology; endogenous in cells; host or cells: OCI-LY10; assay: TYK2 MSD degradation in OCI-LY10 cells; assay type: cell-based; conditions: OCI-LY10 cells, 4 to 24 hours incubation
Sequence (P29597 whole entry): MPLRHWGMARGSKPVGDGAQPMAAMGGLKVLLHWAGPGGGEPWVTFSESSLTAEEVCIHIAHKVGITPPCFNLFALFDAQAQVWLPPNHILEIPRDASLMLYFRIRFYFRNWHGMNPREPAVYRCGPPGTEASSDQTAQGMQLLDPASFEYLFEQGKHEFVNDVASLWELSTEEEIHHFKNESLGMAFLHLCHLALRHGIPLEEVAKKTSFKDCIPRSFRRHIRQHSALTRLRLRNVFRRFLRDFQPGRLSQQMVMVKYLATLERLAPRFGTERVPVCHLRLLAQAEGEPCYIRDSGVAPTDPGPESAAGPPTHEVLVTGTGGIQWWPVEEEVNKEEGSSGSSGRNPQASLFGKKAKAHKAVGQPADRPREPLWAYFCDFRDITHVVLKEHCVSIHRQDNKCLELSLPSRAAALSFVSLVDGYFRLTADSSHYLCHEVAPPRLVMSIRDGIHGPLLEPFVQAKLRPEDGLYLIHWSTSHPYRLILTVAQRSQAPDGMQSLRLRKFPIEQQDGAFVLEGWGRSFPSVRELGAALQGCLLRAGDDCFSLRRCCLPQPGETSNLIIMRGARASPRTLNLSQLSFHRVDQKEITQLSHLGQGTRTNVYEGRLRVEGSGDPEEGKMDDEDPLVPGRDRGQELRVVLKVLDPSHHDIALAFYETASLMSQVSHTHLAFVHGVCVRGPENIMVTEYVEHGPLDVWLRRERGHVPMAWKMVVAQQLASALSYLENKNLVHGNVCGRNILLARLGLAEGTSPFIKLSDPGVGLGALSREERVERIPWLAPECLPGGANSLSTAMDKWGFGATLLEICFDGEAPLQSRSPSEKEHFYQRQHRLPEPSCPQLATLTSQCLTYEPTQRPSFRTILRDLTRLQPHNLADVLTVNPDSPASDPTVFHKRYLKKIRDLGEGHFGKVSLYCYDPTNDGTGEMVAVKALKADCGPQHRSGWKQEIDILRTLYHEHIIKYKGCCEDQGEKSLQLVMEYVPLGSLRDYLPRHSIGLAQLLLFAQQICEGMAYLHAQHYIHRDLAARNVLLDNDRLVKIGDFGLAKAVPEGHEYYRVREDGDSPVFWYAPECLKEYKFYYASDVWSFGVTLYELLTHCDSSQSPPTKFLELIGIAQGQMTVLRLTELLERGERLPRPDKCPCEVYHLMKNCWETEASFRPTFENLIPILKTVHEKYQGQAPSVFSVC

[
  {
    "compound": "CNc1cc(N2CCc3c(N4CC(CN5CCC(N6CCC7(CCN(C(=O)c8ccc(Cl)c(N9CCC(=O)NC9=O)c8)CC7)CC6)C(F)(F)C5)C4)cccc32)nn2c(C(=O)N[C@@H]3C[C@@H]3F)cnc12 (stereo partly drawn) [I-785]",
    "TYK2 MSD OCI-LY10 Dmax %": "B (B (90 to >75%))"
  },
  {
    "compound": "CNc1cc(N2CCc3c(CN4CC[C@@H](N5CCC6(CCN(C(=O)c7ccc(Cl)c(N8CCC(=O)NC8=O)c7)CC6)CC5)C(F)(F)C4)cccc32)nn2c(C(=O)N[C@@H]3C[C@@H]3F)cnc12 [I-714]",
    "TYK2 MSD OCI-LY10 Dmax %": "B (B (90 to >75%))"
  },
  {
    "compound": "CNc1cc(N2CCc3c(CN4CCC(N5CCC6(CCN(C(=O)c7cc(Cl)c(C)c(N8CCC(=O)NC8=O)c7)CC6)CC5)C(F)(F)C4)cccc32)nn2c(C(=O)N[C@@H]3C[C@@H]3F)cnc12 (stereo partly drawn) [I-711]",
    "TYK2 MSD OCI-LY10 Dmax %": "B (B (90 to >75%))"
  },
  {
    "compound": "CNc1cc(N2CCc3c(CN4CCC(N5CCC(C6CCN(C(=O)c7ccc(Cl)c(N8CCC(=O)NC8=O)c7)CC6)CC5)C(F)(F)C4)cccc32)nn2c(C(=O)N[C@@H]3C[C@@H]3F)cnc12 (stereo partly drawn) [I-780]",
    "TYK2 MSD OCI-LY10 Dmax %": "A (A (>90%))"
  },
  {
    "compound": "CNc1cc(N2CCc3c(-c4cc(CN5CCN(CCc6ccc(Cl)c(C7CCC(=O)NC7=O)c6)CC5)ccn4)cccc32)nn2c(C(=O)NC3CC3F)cnc12 (stereo not drawn) [I-395]",
    "TYK2 MSD OCI-LY10 Dmax %": "D (D (<50%))"
  },
  {
    "compound": "CNc1cc(N2CCc3c(CN4CCC(CN5CCC(N6CCN(C(=O)c7ccc(Cl)c(N8CCC(=O)NC8=O)c7)CC6)CC5)C(F)(F)C4)cccc32)nn2c(C(=O)N[C@@H]3C[C@@H]3F)cnc12 (stereo partly drawn) [I-770]",
    "TYK2 MSD OCI-LY10 Dmax %": "B (B (90 to >75%))"
  },
  {
    "compound": "CNc1cc(N2CCc3c(-c4ccc(N5CC6(CCN(Cc7ccc(C8CCC(=O)NC8=O)c(Cl)c7)CC6)C5)cn4)cccc32)nn2c(C(=O)NC3CC3F)cnc12 (mixture of isomers) [I-445]",
    "TYK2 MSD OCI-LY10 Dmax %": "B (B (90 to >75%))"
  },
  {
    "compound": "CNc1cc(N2CCc3c(-c4cc(CN5CCN(c6cc7c(cc6F)c(N6CCC(=O)NC6=O)nn7C)CC5)ccn4)cccc32)nn2c(C(=O)N[C@@H]3C[C@@H]3F)cnc12 [I-709]",
    "TYK2 MSD OCI-LY10 Dmax %": "D (D (<50%))"
  },
  {
    "compound": "CNc1cc(N2CCc3c(-c4cnc(CN5CC6(CCN(C(=O)c7ccc(Cl)c(N8CCC(=O)NC8=O)c7)CC6)C5)cn4)cccc32)nn2c(C(=O)N[C@@H]3C[C@@H]3F)cnc12 [I-466]",
    "TYK2 MSD OCI-LY10 Dmax %": "A (A (>90%))"
  },
  {
    "compound": "CNc1cc(N2CCc3c(CN4CCC(N5CCC6(CCN(C(=O)c7cc(C)c(Cl)c(N8CCC(=O)NC8=O)c7)CC6)CC5)C(F)(F)C4)cccc32)nn2c(C(=O)N[C@@H]3C[C@@H]3F)cnc12 (stereo partly drawn) [I-713]",
    "TYK2 MSD OCI-LY10 Dmax %": "B (B (90 to >75%))"
  },
  {
    "compound": "CNc1cc(N2CCc3c(C#CCN4CCC(N5CCC(C6CCN(c7ccc8c(c7)n(C)c(=O)n8C7CCC(=O)NC7=O)CC6)CC5)C(F)(F)C4)cccc32)nn2c(C(=O)N[C@@H]3C[C@@H]3F)cnc12 (stereo partly drawn) [I-467]",
    "TYK2 MSD OCI-LY10 Dmax %": "B (B (90 to >75%))"
  },
  {
    "compound": "CNc1cc(-c2cn(CC3CCN(CC4CCN(C(=O)c5ccc(Cl)c(N6CCC(=O)NC6=O)c5)CC4)CC3)c3ccccc23)nn2c(C(=O)N[C@@H]3C[C@@H]3F)cnc12 [I-773]",
    "TYK2 MSD OCI-LY10 Dmax %": "D (D (<50%))"
  },
  {
    "compound": "CNc1cc(N2CCc3c(-c4ncc(CN5CCC6(CCN(C(=O)c7cc(C)c(Cl)c(N8CCC(=O)NC8=O)c7)CC6)C(F)(F)C5)cc4C)cccc32)nn2c(C(=O)N[C@@H]3C[C@@H]3F)cnc12 [I-763]",
    "TYK2 MSD OCI-LY10 Dmax %": "B (B (90 to >75%))"
  },
  {
    "compound": "CNc1cc(N2CCc3c(-c4ccc(CN5CC6(CCN(Cc7cc(N8CCC(=O)NC8=O)c(Cl)cc7C)CC6(F)F)C5)cn4)cccc32)nn2c(C(=O)N[C@@H]3C[C@@H]3F)cnc12 [I-456]",
    "TYK2 MSD OCI-LY10 Dmax %": "D (D (<50%))"
  },
  {
    "compound": "CNc1cc(N2CCc3c(CCN4CCC(N5CCN(C(=O)c6ccc(Cl)c(N7CCC(=O)NC7=O)c6)CC5)C(F)(F)C4)cccc32)nn2c(C(=O)N[C@@H]3C[C@@H]3F)cnc12 (stereo partly drawn) [I-743]",
    "TYK2 MSD OCI-LY10 Dmax %": "B (B (90 to >75%))"
  }
]
